- target or test system: human KDR (human, UniProt P35968 20-1356)
- Sequence (P35968 20-1356): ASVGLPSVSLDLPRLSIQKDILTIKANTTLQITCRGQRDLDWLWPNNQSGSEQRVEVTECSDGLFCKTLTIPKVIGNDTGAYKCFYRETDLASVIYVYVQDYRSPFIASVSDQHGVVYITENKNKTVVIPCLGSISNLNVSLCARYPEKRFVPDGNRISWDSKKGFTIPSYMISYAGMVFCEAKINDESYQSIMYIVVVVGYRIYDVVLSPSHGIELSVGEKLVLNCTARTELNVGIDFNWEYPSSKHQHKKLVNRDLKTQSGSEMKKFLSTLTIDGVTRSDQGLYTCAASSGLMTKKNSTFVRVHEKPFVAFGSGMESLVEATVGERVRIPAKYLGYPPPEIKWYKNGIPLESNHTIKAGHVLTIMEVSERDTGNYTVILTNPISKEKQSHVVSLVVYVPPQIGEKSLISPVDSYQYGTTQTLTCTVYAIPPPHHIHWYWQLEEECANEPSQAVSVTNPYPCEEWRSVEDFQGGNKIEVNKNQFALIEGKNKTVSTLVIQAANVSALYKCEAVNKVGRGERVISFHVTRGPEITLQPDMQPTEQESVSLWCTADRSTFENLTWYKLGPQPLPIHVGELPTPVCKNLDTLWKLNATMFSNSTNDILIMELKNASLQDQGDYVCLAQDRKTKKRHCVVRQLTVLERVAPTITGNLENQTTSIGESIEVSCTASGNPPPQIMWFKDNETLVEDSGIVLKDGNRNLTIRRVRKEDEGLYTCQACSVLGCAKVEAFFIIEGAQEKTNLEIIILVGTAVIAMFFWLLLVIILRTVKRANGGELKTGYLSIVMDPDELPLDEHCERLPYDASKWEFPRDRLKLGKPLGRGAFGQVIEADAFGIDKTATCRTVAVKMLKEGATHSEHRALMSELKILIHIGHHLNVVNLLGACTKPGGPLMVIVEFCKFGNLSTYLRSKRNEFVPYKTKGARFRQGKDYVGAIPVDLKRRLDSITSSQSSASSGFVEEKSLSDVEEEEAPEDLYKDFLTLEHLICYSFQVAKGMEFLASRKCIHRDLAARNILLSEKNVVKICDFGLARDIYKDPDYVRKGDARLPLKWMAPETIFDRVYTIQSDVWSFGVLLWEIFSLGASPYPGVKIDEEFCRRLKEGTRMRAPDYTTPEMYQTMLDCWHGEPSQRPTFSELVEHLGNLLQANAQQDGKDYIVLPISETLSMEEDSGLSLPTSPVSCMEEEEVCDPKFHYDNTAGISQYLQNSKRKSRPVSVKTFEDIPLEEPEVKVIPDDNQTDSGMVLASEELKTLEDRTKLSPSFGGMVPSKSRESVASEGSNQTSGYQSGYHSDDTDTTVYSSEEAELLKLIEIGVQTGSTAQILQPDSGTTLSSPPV
- test method notes: cell-based or functional assay
assay readout: HUVEC survival, Maximum Inhibition at 50 nM (% Inhibition), Average (%)
Quick note: give the figure in %, leave out the unit.

31E11 (antibody, V domains shown, Fully human monoclonal antibody from a XenoMouse hybridoma (IgG2 or IgG4 strain), purified) VH: QVQLVESGGGLVKPGGSLRLSCAASGFTFSDYYMSWIRQAPGKGLEWVSYISISGSTIYYADSVKGRFTISRDNAKNSLYLQMNSLRAEDTAVYYCARDDFWSGYYFNWFDPWGQGTLVTVSS VL: DIQMTQSPSSLSASVGDRVTITCRANQTISTFLNWYQQNPGKAPKLLIYAASSLQSGVPSRFSGSGSGTDFTLTISSLQPEDFATYYCQQTYIIPLTFGGGTKVEIK ... 101

Memo: 33C3 (antibody, V domains shown, Fully human monoclonal antibody from a XenoMouse hybridoma (IgG2 or IgG4 strain), purified) VH: QVQLVESGGGLVKPGESLRLSCAASGFTFSDYYMSWIRQAPGKGLEWVSYISHGGSTIYYADSVKGRFTISRDNAKNSLYLQMNSLRVEDTAVYFCARDDFWSGYYFNWFDPWGQGALVTVSS VL: DIQMTQYPLSLSASVGDRVTITCRASQSISSFLNWYHQKPGKAPKLLIYGTSSLQSGVPSRFSGSGSGTDFTLTISSLQPEDFATYYCQQTYSIPLTFGGGTNVEIK , reported HUVEC survival, Maximum Inhibition at 50 nM (% Inhibition), Average: 101

Memo: 29H3 (antibody, V domains shown, Fully human monoclonal antibody from a XenoMouse hybridoma (IgG2 or IgG4 strain), purified) VH: QVQLVQSGAEVKKPGASVKVSCKASGYTFTSYDINWVRQATGQGLEWMGWMNPNSGKTGYAQKFQGRVTMTRNTSINTAYMELSSLRSEDTAVYYCARGGYSNLGWFDPWGQGTLVTVSS VL: DIQMTQSPSSVSASVGDRVTITCRASQGISSWLVWYHQKPGKAPKLLIYGASSLQSGVPSRFSGSGSGTDFTLTISSLQPEDFATYYCQQANNFPFTFGPGTKVDIK , reported HUVEC survival, Maximum Inhibition at 50 nM (% Inhibition), Average: 11

Memo: 32G7 (antibody, V domains shown, Fully human monoclonal antibody from a XenoMouse hybridoma (IgG2 or IgG4 strain), purified) VH: EVQLVESGGGLVKPGGSLRLSCAASGFTISSYSMNWVRQAPGKGLEWVSFISSRSNYIYYADSVKGRFTISRDNAKNSLYLQMNSLRAEDTAVYYCSKDDWFEELWGQGTLVTVSS VL: DIQMTQSPSSLSASVGDRVTITCRASQDIRNDLGWYQQKPGKAPKRLIYAASSLQSGVPSRFSGSGSGTEFTLTISSLQPEDFATYYCLQHNSFPWTFGQGTKVEIK , reported HUVEC survival, Maximum Inhibition at 50 nM (% Inhibition), Average: 72

Memo: 21H6 (antibody, V domains shown, Fully human monoclonal antibody from a XenoMouse hybridoma, purified) VH: QVQLVESGGGLVKPGGSLRLSCAASGFTFSDYYMSWIRQAPGKGLEWVSYISNSGITIYYADSVKGRFTISRDNAKNSLYLQMNSLRAGDTAVYYCAREEWYSSRWYRNFDYWGQGTLVTVSS VL: DIQMTQFSSSLSASVGDRVTITCRASQSISRYLNWYQQKPGKAPKLLIYAASSLQSGVPSRFNGSGSGTDFTLTISSLQPEDFATYYCQQSYSAPLTFGGGTKVEIK , reported HUVEC survival, Maximum Inhibition at 50 nM (% Inhibition), Average: 96
